Tested on: HCT-15
experiment: MTT test, cytotoxic activity on non-clonogenic cell lines
Format: cell-based
condition-set: Homo sapiens, HCT-16, 10^−5 M, 72 hours incubation, MTT, mean value, read-out: mean optical density, expressed as percentage relative to the mean optical density under the control condition (100%)
reported-endpoint: viability at 10 µM (%)

CCOC(=O)CCn1cc(-c2ccc(OC)cc2)c(=O)c2ccc(OC)cc21 :: 111
COc1ccc(-c2cn(CCC#N)c3cc(OC)ccc3c2=O)cc1 :: 108
CCN(CC)c1cc(OC)cc2c1c(=O)c(-c1ccc(OC)cc1)cn2C :: 110

---

Test system: U-373MG
experiment: MTT test, cytotoxic activity on non-clonogenic cell lines
Format: cell-based
condition-set: Homo sapiens, U373 MG; 10^−5 M, 72 hours of incubation, control condition = 100%, mean value; read-out: mean optical density as percentage of control, U-373MG
reported-endpoint: viability at 10 µM (%)

COc1ccc(-c2cn(C)c3cc(OC)cc(OC)c3c2=O)cc1 [CRL8340] :: 97.9
COc1ccc(-c2cn(C)c3c(OC)ccc(-c4ccccc4)c3c2=O)cc1 [CRL8405] :: 28.8
COc1ccc(-c2cn(C)c3cc(OC)cc(N4CCCCC4)c3c2=O)cc1 [CRL8425] :: 82.6
COc1ccc(-c2cn(C)c3cc(OC)cc(NCc4ccccc4)c3c2=O)cc1 [CRL8424] :: 82.5
COc1ccc(-c2c[nH]c3ccccc3c2=O)cc1 [CRL8327] :: 58.7
CCOC(=O)Cn1cc(-c2ccc(OC)cc2)c(=O)c2c(OC)cc(OC)cc21 [CRL8360] :: 88
CCOC(=O)CCn1cc(-c2ccc(OC)cc2)c(=O)c2c(OC)cc(OC)cc21 [CRL8404] :: 104
COc1cc(OC)c2c(=O)c(-c3ccccc3)c[nH]c2c1 [CRL8352] :: 104
COc1ccc2c(=O)c(-c3ccccc3)c[nH]c2c1 [CRL8359] :: 41.2
CCc1cc(OC)cc2c1c(=O)c(-c1ccc(OC)cc1)cn2C [CRL8393] :: 74.7
COc1ccc(-c2cn(C)c3ccc(OC)cc3c2=O)cc1 [CRL8378] :: 98.1
COc1ccc(-c2c[nH]c3cc(OC)c(OC)cc3c2=O)cc1 [CRL8354] :: 97.7
COc1ccc2c(c1)c(=O)c(-c1ccccc1)cn2C [CRL8379] :: 113

Values were extracted from patent US6645983B1.
